assay: phase I plasma pharmacokinetics (non-compartmental, LC-MS/MS); assay type: in vivo, human; settings: human, plasma, po, 50 mg, single oral administration, 50 mg larotinib mesylate, plasma; read-out: AUC0-24, mean (min–max)
Structures can show the parent of a compound that is named as a salt.
MEASURE NAME: AUC(0-t) (ng·h/mL)

molecule="COc1cc2ncnc(Nc3ccc(F)c(Cl)c3)c2cc1OCCCN1C[C@@H]2OCCO[C@@H]2C1 [larotinib mesylate]" measure_name=AUC(0-t) test_value=245

====

assay: urine and fecal excretion recovery, cycle 0; assay type: in vivo; settings: human, feces, oral; 150-mg group; read-out: 0–120 h excretion recovery percentage in feces
Where a name gives a salt, the structure may show the parent alone.
MEASURE NAME: dose excreted (%)

compound="COc1cc2ncnc(Nc3ccc(F)c(Cl)c3)c2cc1OCCCN1C[C@@H]2OCCO[C@@H]2C1 [larotinib mesylate]" unit_annotation=% test_value=6.01
